target: mouse TAAR1 (Mus musculus)
Sequence (Q923Y8 whole entry): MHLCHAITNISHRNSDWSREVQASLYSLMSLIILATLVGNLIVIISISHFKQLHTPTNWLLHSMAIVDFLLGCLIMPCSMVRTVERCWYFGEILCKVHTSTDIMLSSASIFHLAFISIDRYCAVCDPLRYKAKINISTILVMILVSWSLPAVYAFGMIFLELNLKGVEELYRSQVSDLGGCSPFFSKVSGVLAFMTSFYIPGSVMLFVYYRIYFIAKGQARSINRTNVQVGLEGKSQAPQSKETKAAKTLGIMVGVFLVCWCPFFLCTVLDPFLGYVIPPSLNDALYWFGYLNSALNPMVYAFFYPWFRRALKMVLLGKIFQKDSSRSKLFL
pKd: −log10 of the molar value.
readout_kind: pKd

c1ccc2c(c1)CCCC2C1=NCCN1 (racemic) [reference compound]    7.22
